Biological target: recombinant human TFPI (tissue factor pathway inhibitor) (human, UniProt P10646 29-304)
Assay: cell-based or functional assay
REPORTED_PROPERTY: % of Normalized, TF/FVIIa/FX complex assay (FX 5 nM), Ab 1.56 nM (%)
Enter your answer as a number in %; do not include the unit.

Consider the reported % of Normalized, TF/FVIIa/FX complex assay (FX 5 nM), Ab 1.56 nM for these binders:
{"columns": ["BINDER", "UNIT_ABBREV", "QUANTITATIVE_READOUT"],
 "data": [
  ["clone 2 (antibody, V domains shown) VH: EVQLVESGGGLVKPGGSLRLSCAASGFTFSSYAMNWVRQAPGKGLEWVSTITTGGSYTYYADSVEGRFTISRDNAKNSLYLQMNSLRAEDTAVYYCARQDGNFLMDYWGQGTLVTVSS VL: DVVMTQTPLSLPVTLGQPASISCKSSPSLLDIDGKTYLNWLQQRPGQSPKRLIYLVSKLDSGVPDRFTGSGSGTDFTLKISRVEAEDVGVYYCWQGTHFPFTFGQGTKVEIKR", "%", 5.5],
  ["clone 3 (antibody, V domains shown) VH: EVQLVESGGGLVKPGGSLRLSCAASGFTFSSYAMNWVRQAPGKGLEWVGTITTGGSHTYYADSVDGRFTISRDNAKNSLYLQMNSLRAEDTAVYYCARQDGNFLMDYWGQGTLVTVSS VL: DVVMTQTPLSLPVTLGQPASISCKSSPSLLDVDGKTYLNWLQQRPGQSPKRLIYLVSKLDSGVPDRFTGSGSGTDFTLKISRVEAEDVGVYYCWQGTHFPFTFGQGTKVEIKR", "%", 5.6],
  ["clone 1023 (antibody, V domains shown, scFv on yeast at selection; human IgG4/kappa IgG as purified) VH: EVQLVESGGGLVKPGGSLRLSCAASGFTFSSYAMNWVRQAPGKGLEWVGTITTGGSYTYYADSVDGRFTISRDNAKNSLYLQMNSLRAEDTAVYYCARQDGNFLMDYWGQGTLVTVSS VL: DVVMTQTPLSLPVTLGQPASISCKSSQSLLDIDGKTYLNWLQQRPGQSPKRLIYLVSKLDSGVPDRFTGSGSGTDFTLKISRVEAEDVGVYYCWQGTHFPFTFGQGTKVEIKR", "%", 6.2]
]}

Next binder, please.
Q: Kindly indicate its recorded % of Normalized, TF/FVIIa/FX complex assay (FX 5 nM), Ab 1.56 nM. Item: clone 8 (antibody, V domains shown) VH: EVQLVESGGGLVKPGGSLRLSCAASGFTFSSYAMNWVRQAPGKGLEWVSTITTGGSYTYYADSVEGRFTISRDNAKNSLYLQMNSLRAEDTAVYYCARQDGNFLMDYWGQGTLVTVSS VL: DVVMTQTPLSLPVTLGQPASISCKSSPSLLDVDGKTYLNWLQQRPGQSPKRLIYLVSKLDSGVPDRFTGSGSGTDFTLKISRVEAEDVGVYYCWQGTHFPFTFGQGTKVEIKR
Ans: 5.1
